assay.explanation: Human HepG2 cell viability assay in 384 well format
Assay type: toxicity, cell-based
Set-up: dose 125 nL, time 70.5 hour; concentration not given beside the values
protocol.conditions: HepG2 cells, read-out: Inhibition
endpoint.label: cytotoxicity at 70.5 h (%)
Lab book: enter the figure in %, no units written.

INSERT INTO measurements (molecule, recorded_value) VALUES
  ('O=C(c1ccc(N2CCCC2)nn1)N1CCCC(n2ccnc2)C1 (stereo not given)', -5.71),
  ('O=C(Nc1ccccn1)C1CCN(Cc2cccc3c2OCCO3)CC1', 27.9),
  ('O=C(c1ccc(O)cn1)N1CCOC(Cc2cccc(C(F)(F)F)c2)C1 (stereo not given)', 22.6);

Query block: Endpoint output: cytotoxicity at 70.5 h of Cc1nn2c(nc1=O)-c1ccccc1NC2C(=O)O (stereo not given) . Value?
Result block: -9.44

Query block: May I ask what cytotoxicity at 70.5 h has been recorded for CN(C)Cc1ccc(C(N)=O)cc1NC(=O)c1cccc(C#N)c1 ?
Result block: -4.53

Query block: Which cytotoxicity at 70.5 h is listed for c1ccc(CN2CCn3c(Cn4cncn4)cnc3C2)nc1 ?
Result block: -10.2

Query block: # lookup: cytotoxicity at 70.5 h of c1cnn(CCC2CCN(Cc3ccc4[nH]ccc4c3)CC2)c1
Result block: 0.43

Query block: What cytotoxicity at 70.5 h value was documented for this molecule, COCCc1noc(CN2CCCC2c2c(C)nn(C)c2Cl)n1 (stereo not given) ?
Result block: -0.0583

Query block: Record request: cytotoxicity at 70.5 h value, item CNC(=O)COc1ccc(-c2ccccc2)nc1
Result block: -7.98

Query block: Name the reported cytotoxicity at 70.5 h value associated with the molecule N#Cc1cccc(OCCN2CCNC(=O)C2c2cccs2)c1 (stereo not given)
Result block: -6

====

assay.explanation: Human HepG2 cell viability assay in 384 well format
Format: toxicity, cell-based
Set-up: dose 125 nL, time 70.5 hour; concentration not given beside the values
protocol.conditions: HepG2 cells, read-out: Inhibition
Quick list: cytotoxicity at 70.5 h per entry.
Answer format: numeric, % implied, no suffix.

Known results for molecules:
INSERT INTO measurements (molecule, endpoint_label, recorded_value) VALUES
  ('CC(C)(CN1CCC2(CCNCC2)CC1)N1CCOCC1', 'cytotoxicity at 70.5 h', -3.64),
  ('COCCNC(=O)c1ccccc1-n1cc(CN)cn1', 'cytotoxicity at 70.5 h', -1.19),
  ('CC(C)c1nnc2n1CCN(c1nn3cc(C(C)(C)C)nc3s1)C2', 'cytotoxicity at 70.5 h', -8.04),
  ('CSc1ccc(S(=O)(=O)NC2CNC(=O)C2)cc1 (stereo unspecified)', 'cytotoxicity at 70.5 h', -3.59),
  ('CC(=O)N1CCCN(C(=O)Nc2ccccc2N2CCOC2=O)CC1', 'cytotoxicity at 70.5 h', -4.99),
  ('c1ccc(CCN2CCn3cc(Cn4cccn4)nc3C2)cc1', 'cytotoxicity at 70.5 h', -10.6),
  ('CN(C)C(=O)c1ccc(NCCNc2ccc3ccccc3n2)nc1', 'cytotoxicity at 70.5 h', 45.4),
  ('CCOCCN1CCN(CC(O)c2ccc(C)c(C)c2)CC1 (stereo unspecified)', 'cytotoxicity at 70.5 h', -10.1),
  ('CC(C)OCCOCc1cccc(NC(=O)NCCn2ccnc2)c1', 'cytotoxicity at 70.5 h', -8.94),
  ('CCCNC(=O)c1cc2c([nH]c1=O)CC(c1cccs1)CC2=O (stereo unspecified)', 'cytotoxicity at 70.5 h', -19.4);

Query block: Could you tell me which cytotoxicity at 70.5 h is on file for NC(=O)C1CCN(C(=O)c2ccccc2OCc2ccncc2)CC1 ?
Result block: -12.3

Query block: Fill in the blank: the reported cytotoxicity at 70.5 h of CCN1CCOC(CNCc2cccc(OCc3ccccn3)c2)C1 (stereo unspecified) is ____.
Result block: -6.84

Query block: Fill in: cytotoxicity at 70.5 h of CN(Cc1cnn(C)c1)C(CO)c1cccc(Br)c1 (stereo unspecified) is ___
Result block: -16.5

Query block: May I ask what cytotoxicity at 70.5 h has been recorded for CC(C)NC(=O)C1CCc2nnc(C(C)(C)C)n21 (stereo unspecified) ?
Result block: -5.68

Query block: Suppose we examine the molecule CC(C)c1[nH]c2ncccc2c1CN1CCN(S(=O)(=O)N(C)C)CC1 ; what cytotoxicity at 70.5 h value has been reported?
Result block: -7.69

Query block: Can you share its cytotoxicity at 70.5 h? I mean this molecule: Cc1noc(CN2CC=C(c3c[nH]c4ncccc34)CC2)n1
Result block: 20.4

Query block: I have this molecule here, CCN1CCN(C(=O)COCc2nc(-c3ccncc3)no2)CC1 , and I need its recorded cytotoxicity at 70.5 h.
Result block: -1.19

Query block: # query: cytotoxicity at 70.5 h of entry Cn1nc(C(=O)N2CCOCC2)cc1C(=O)Nc1ccc(Cl)cc1Cl
Result block: -2.86

Query block: Entry COc1ccc(C)cc1NC(=O)C1CSc2ncc(C)c(=O)n2C1 (stereo unspecified) has what cytotoxicity at 70.5 h?
Result block: 8.57

Query block: # lookup: cytotoxicity at 70.5 h of COCCN(C)C(=O)c1nc2c(s1)CCCN2C
Result block: 11.8
